Recorded values, source paper PMC314469.

Target: T1, GST-Abp1 SH3 domain (S. cerevisiae, UniProt P15891 532-592)
T1 chain: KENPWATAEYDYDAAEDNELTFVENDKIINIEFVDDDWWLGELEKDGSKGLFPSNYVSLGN
Assay: SPR
pKd: −log10 of the molar value. No end group written: not given here.
# label = MET if pKd >= 5 else NOT MET

binder	label
PPPRPKKP (also: bound to cellulose membrane) [Srv2 peptide(s) on the Abp1 SPOT membrane]	NOT MET
LSTKKPRPPVKSKP (also: bound to cellulose membrane) [Scp1 peptide(s) on the Abp1 SPOT membrane]	NOT MET
SKDKKTKPTPPPKP (also: bound to cellulose membrane (SPOT)) [Ark1 peptide(s) on the Abp1 SPOT membrane]	NOT MET
RPKRRAPPPVPKKP (also: bound to cellulose SPOT membrane) [Yir003w peptide(s) on the Abp1 SPOT membrane]	MET
GKDKSRPPRPPPKP (also: bound to cellulose membrane (SPOT)) [Prk1 peptide(s) on the Abp1 SPOT membrane]	NOT MET
